molecular target: HIV-1 integrase / human LEDGF/p75 complex; test: blockers of LEDGF/p75-dependent integrase activity – biochemical, TR-FRET, dose response (AID 1053172); settings: TR-FRET integrase-LEDGF/p75 DNA integration
The source made the active and inactive calls. How the calls were made is not given here.
Classes used: yes for active, no for inactive

compound: Cn1cccc1CC(=O)NN=C/C=C\c1ccco1
groupLabel: no

compound: O=c1c(O)c(-c2ccc(O)c(O)c2)oc2cc(O)ccc12
groupLabel: yes

compound: O=c1[nH]c2cc3c(cc2cc1CN(Cc1cccnc1)Cc1nnnn1Cc1ccco1)OCCO3
groupLabel: no

compound: COc1ccc2[nH]c3c(C)c4cc[n+](C)cc4c(C)c3c2c1
groupLabel: yes

compound: Oc1ccc(C[C@H]2NCCc3cc(O)c(O)cc32)cc1O
groupLabel: yes

compound: CN(C)c1ccc(O)c2c1CC1CC3[C@@H](N(C)C)C(=O)C(C(N)=O)=C(O)[C@]3(O)C(=O)C1=C2O (some centres not stated)
groupLabel: yes

compound: O=C(N/N=C\C=C\c1ccc([N+](=O)[O-])o1)c1cccs1
groupLabel: no
